molecular target: Fibroblast growth factor receptor 3 (Homo sapiens) (UniProt P22607); details: Compound concentration 20.0 uM, Protein concentration 2.0 uM, Result type QC Liability
Sequence (P22607 23-806 limits assumed): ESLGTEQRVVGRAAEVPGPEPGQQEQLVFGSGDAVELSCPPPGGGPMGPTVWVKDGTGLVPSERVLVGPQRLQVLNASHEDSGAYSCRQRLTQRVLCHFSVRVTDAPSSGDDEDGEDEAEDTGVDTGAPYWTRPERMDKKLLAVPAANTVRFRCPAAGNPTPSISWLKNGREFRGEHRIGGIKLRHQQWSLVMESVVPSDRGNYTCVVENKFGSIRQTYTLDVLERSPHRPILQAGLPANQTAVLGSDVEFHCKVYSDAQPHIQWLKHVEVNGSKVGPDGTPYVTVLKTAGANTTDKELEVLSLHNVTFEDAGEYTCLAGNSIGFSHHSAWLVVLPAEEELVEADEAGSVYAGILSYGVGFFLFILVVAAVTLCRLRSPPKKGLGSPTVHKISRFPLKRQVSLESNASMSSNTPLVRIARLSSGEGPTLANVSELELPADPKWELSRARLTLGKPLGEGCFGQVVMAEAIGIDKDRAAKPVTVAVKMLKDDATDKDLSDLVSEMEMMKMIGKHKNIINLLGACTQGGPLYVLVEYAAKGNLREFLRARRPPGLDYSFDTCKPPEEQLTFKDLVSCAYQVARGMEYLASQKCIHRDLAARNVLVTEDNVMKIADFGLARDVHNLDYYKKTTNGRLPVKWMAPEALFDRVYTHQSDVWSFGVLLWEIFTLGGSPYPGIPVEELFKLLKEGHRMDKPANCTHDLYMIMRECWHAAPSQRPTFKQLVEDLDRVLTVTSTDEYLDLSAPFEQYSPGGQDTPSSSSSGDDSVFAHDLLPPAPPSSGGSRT
Description: Thermal Shift Assay. Domain: start/stop: P449-E759
Mark yes (1) for ΔTm under 0.9 °C, no (0) if at or over.

Worked examples follow.
{"columns": ["compound", "group"],
 "data": [
  ["CCCCCCCC/C=C\\CCCCCCCC(=O)NCCO", "no (0)"],
  ["COc1cnccc1Nc1nc(-c2nn(Cc3c(F)cc(OCCO)cc3F)c3ccccc23)ncc1OC", "yes (1)"],
  ["CC(C)c1cnc(NC(=O)Cc2ccccc2)s1", "yes (1)"],
  ["Fc1cccc(-n2cnc3c(NCc4nc5c(F)c(F)ccc5[nH]4)nc(N4CCOCC4)nc32)c1", "yes (1)"],
  ["O=C(Cc1ccccc1[N+](=O)[O-])Nc1ccc(-c2ccc(C(O)(C(F)(F)F)C(F)(F)F)cc2F)cc1", "no (0)"]
]}

Req: Dear reviewer, please state whether O=C(Nc1ccc(Cl)c(-c2ccccn2)c1)c1cccc(COc2ccc(Br)cc2CNCCO)c1 has ΔTm strictly beneath 0.9 °C.
Resp: yes (1)

Req: # TODO verify ΔTm < 0.9 °C strictly for this compound: CC(C)N(C(=O)C1CCOCC1)c1cc(F)c(Oc2ncc(Cn3nccn3)cc2C(F)(F)F)cc1C(=O)O
Resp: yes (1)

Req: Please check: ΔTm for O=C(Nc1cccc(C(F)(F)F)c1)c1cccc(-n2cc(-c3ccco3)nn2)c1 , strictly under 0.9 °C or not?
Resp: yes (1)

Req: # strict comparison: is reported ΔTm < 0.9 °C? input = C[C@H](NC(=O)c1cnc2n1[C@](C)(Cc1ccc(C#N)cc1)C(=O)N2c1cc(Cl)c(F)c(Cl)c1)C(=O)NC1(c2ccccn2)CC1
Resp: no (0)

Req: Quick check: ΔTm of CN1CCN(c2ccc(Nc3ncc4cc5n(c4n3)C3(CCCCC3)CNC5=O)nc2)CC1 under 0.9 °C?
Resp: yes (1)

Req: Find out if reported ΔTm for COc1ccc2c(O[C@@H]3C[C@H]4C(=O)N[C@]5(C(=O)NS(=O)(=O)C6(C)CC6)CC5/C=C\CCCCC[C@H](NC(=O)c5ccn(C)n5)C(=O)N4C3)cc(OC(C)C)nc2c1C (stereo partly specified) is less than 0.9 °C
Resp: no (0)

Req: Hello, is ΔTm of the following compound strictly smaller than 0.9 °C? Clc1ccc(-c2nc3sccn3c2/C=N/OCc2ccc(Cl)c(Cl)c2)cc1
Resp: yes (1)

Req: For this compound, is ΔTm lower than 0.9 °C? Oc1c(-c2cccnc2)cnn1-c1ccccn1
Resp: yes (1)

Req: Take the compound CS(=O)(=O)CCNCc1ccc(-c2ccc3ncnc(Nc4ccc(OCc5cccc(F)c5)c(Cl)c4)c3c2)o1 and say whether its ΔTm is less than 0.9 °C.
Resp: yes (1)

Req: Is the reported ΔTm for COc1ccc(F)c(F)c1C(=O)c1cnc(NC2CCN(S(C)(=O)=O)CC2)nc1N strictly below 0.9 °C?
Resp: no (0)

Req: # strict comparison: is reported ΔTm < 0.9 °C? input = COc1ncc(-c2cc(-c3ncc(CN4C[C@@H](C)O[C@@H](C)C4)o3)c3cn[nH]c3c2)cc1NS(C)(=O)=O
Resp: no (0)

Req: Here's an entry: COc1cc2ncnc(Nc3cccc(O)c3)c2cc1OC . Is its ΔTm below 0.9 °C?
Resp: no (0)

Req: Lab note: ΔTm threshold 0.9 °C. Does this compound come in strictly under it? Cc1cccc(-c2[nH]c(CNc3ccccc3F)nc2-c2ccc3ncnn3c2)n1
Resp: no (0)

Req: For this compound, is ΔTm lower than 0.9 °C? CCC(=O)O[C@@H](OP(=O)(CCCCc1ccccc1)CC(=O)N1C[C@H](C2CCCCC2)C[C@H]1C(=O)O)C(C)C (stereo partly specified)
Resp: yes (1)

Req: Below 0.9 °C on ΔTm? Entry Cc1cccc(-c2nn3c(c2-c2ccnc4ccc(C(N)=O)cc24)CCC3)n1
Resp: no (0)

Req: is_below(ΔTm, 0.9 °C) for CC(C)(C)c1cnc(CSc2cnc(NC(=O)C3CCN(CC(=O)NCCOCCOCCOCCNc4cccc5c4C(=O)N(C4CCC(=O)NC4=O)C5=O)CC3)s2)o1 (stereo unspecified) ?
Resp: yes (1)

Req: Confirm or reject: ΔTm of Cc1nc2cccnc2n2c(-c3cc(C(C)(C)O)ncc3Cl)nnc12 lies strictly below 0.9 °C
Resp: no (0)

Req: For this compound, is ΔTm lower than 0.9 °C? CSc1ccc(C[C@@H](C)C(=O)O)cc1Nc1nc(N2CC[C@H](N(C)C)C2)cc(C(F)F)c1C#N
Resp: yes (1)

Req: Please check: ΔTm for COc1cc(Nc2cnc(C#N)c(O[C@H](C)CN(C)C)n2)ncc1-c1cnn(C)c1 , strictly under 0.9 °C or not?
Resp: no (0)

Entry source: ChEMBL document CHEMBL5308504
